organism: Cavia porcellus; test: Inotropic effect in electrically driven left atrium from reserpine-treated guinea pig at the concentration of 10 e-5 M; assay type: functional, Cardiac atrium
The entries below come with measured Increase values attached.
Please give a number only; it is taken to be in %.

# COMPOUND, Increase, %
rows = [
    ("CC(=O)c1cc(C#N)c(O)nc1C", 12.64),
]

Memo: CC1CC(=O)c2ccc(O)nc2C1 (centres undefined) , reported Increase: 6.31

Briefly, Increase measured for Nc1cc(-c2ccncc2)c[nH]c1=O : 4.5

Entry under test: Cc1[nH]c(=O)c(C#N)cc1-c1ccncc1 . Its Increase was 13.25

###

species on record: Cavia porcellus; assay: Effect on frequency rate of spontaneously beating atria from reserpine treated guinea pigs at the concentration of 10 e-5 M; type: functional
Some compounds, each annotated with its measured Increase.
Form entry: value (%) — number only.

Consider the following illustrative entries.
# COMPOUND, REPORTED_VALUE
records = [
    ("O=C1CCCc2nc(O)ccc21", 0),
    ("O=C1CC(c2ccccc2)Cc2nc(O)ccc21 (centres undefined)", 2.19),
    ("N#Cc1cc(C(=O)c2ccccc2)c(-c2ccccc2)nc1O", 0.5),
]

get_value(item= N#Cc1cc2c(nc1O)CCCC2=O , readout=Increase) returns 3.02

###

molecules and their reported Increase
organism: Cavia porcellus; assay: Inotropic effect in electrically driven left atrium from reserpine-treated guinea pig at the concentration of 5 x 10 e-4 M; assay type: functional, Cardiac atrium
Just the number in %, nothing appended.

Some solved cases for reference:
# MOLECULE, UNITS_OF_MEASURE, Increase
rows = [
    ("Nc1cc(-c2ccncc2)c[nH]c1=O [INAMRINONE]", "%", 22.3),
    ("CC(=O)c1cc(C#N)c(O)nc1C", "%", 48.67),
    ("CC1CC(=O)c2ccc(O)nc2C1 (centres undefined)", "%", 37.23),
]

Continue with the next molecule.
# Increase (molecule: Cc1[nH]c(=O)c(C#N)cc1-c1ccncc1 [MILRINONE] ) is 44.72

###

organism: Cavia porcellus; experiment: Effect on contractile force of spontaneously beating atria from reserpine treated guinea pigs at the concentration of 2 x 10 e-3 M (negative ionotropic effect); format: functional
The entries below are paired with their reported Increase.
All answers are understood in %, so give the number only.

Worked cases, Increase given:
# SMILES_CODE, UNITS_OF_MEASURE, Increase
data = [
    ("CC1(C)CC(=O)c2cc(C(=O)O)c(O)nc2C1", "%", -4.46),
    ("CC(C)(C)C(=O)c1cc(C#N)c(O)nc1C(C)(C)C", "%", -89.11),
    ("CC(C)C(=O)c1cc(C#N)c(O)nc1C(C)C", "%", -86.43),
    ("CC(C)C(=O)c1ccc(O)nc1C(C)C", "%", -44.47),
    ("O=C(O)c1cc(C(=O)c2ccccc2)c(-c2ccccc2)nc1O", "%", -100),
]

Reported Increase ( O=C(c1ccccc1)c1ccc(O)nc1-c1ccccc1 ) = -46.27

// recorded Increase for N#Cc1cc(C(=O)c2ccccc2)c(-c2ccccc2)nc1O : -39.43

Reported Increase of CC(C)C(=O)c1cc(C(=O)O)c(O)nc1C(C)C : -99.99
